- System: 485176-168-R4-J1-PDC spheroids with HUVEC/MSC, viability
- assayDetails: Anticancer human tumor 485176-168-R4-J1-PDC patient-derived pancreatic adenocarcinoma cell line growth inhibition [GQUAD]
- appliedConditions: curve of compound
measuredAttribute: IC50

1) CC(=O)O[C@H]1C(=O)[C@@]2(C)[C@H]([C@H](OC(=O)c3ccccc3)[C@]3(O)C[C@H](OC(=O)[C@H](O)[C@@H](NC(=O)c4ccccc4)c4ccccc4)C(C)=C1C3(C)C)[C@]1(OC(C)=O)CO[C@@H]1C[C@@H]2O
< 0.0316 µM
2) CC(C)(O)C1CCC(Nc2ccc3ncc(-c4cccc(C(F)(F)F)c4)n3n2)CC1 (stereo not drawn)
> 10 µM
3) COc1ncnc(C2CC2)c1-c1ncc2cnn(Cc3ccc(-c4nc(C(F)(F)F)cn4C(C)C)cc3)c2n1
> 10 µM

* * *

- Test system: 485176-168-R4-J1-PDC spheroids with HUVEC/MSC, viability
- assayDetails: Anticancer human tumor 485176-168-R4-J1-PDC cell line growth inhibition [GQUAD]; active = viability on the fitted dose curve at most 10% of control; inactive = the rest;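 note: spheroids exposed to compounds for seven days before readout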
- appliedConditions: second compound 0.1 µM; first compound 0.316 µM
Possible outcomes: active, inactive

1. CCc1c2c(nc3ccc(O)cc13)-c1cc3c(c(=O)n1C2)COC(=O)[C@]3(O)CC + Cc1[nH]c2ccc(F)cc2c1-c1nc2c3cccnc3c3ncccc3c2[nH]1
active
2. Cc1cccc(N(C)C(=O)C2C(O)CCN2c2nc(C)cc(C(F)(F)F)c2C#N)c1 (stereo unspecified) + Cc1[nH]c2ccc(F)cc2c1-c1nc2c3cccnc3c3ncccc3c2[nH]1
inactive
3. COc1cccc2c1C(=O)c1c(O)c3c(c(O)c1C2=O)CC(O)(C(=O)CO)CC3OC1CC(N)C(O)C(C)O1 (stereo unspecified) + Cc1[nH]c2ccc(F)cc2c1-c1nc2c3cccnc3c3ncccc3c2[nH]1
inactive
4. CC1COCCN1c1cc(C2(S(C)(=N)=O)CC2)nc(-c2ccnc3[nH]ccc23)n1 (stereo unspecified) + Cc1cnc(CNC(=O)c2c(=O)c3ccc(N4CCCN(C)CC4)nc3n3c2sc2ccccc23)cn1
inactive
5. Cc1cccc(N(C)C(=O)C2C(O)CCN2c2nc(C)cc(C(F)(F)F)c2C#N)c1 (stereo unspecified) + Cc1cnc(CNC(=O)c2c(=O)c3ccc(N4CCCN(C)CC4)nc3n3c2sc2ccccc23)cn1
inactive
6. COc1cc(C2c3cc4c(cc3C(OC3OC5COC(C)OC5C(O)C3O)C3COC(=O)C23)OCO4)cc(OC)c1O (stereo unspecified) + Cc1[nH]c2ccc(F)cc2c1-c1nc2c3cccnc3c3ncccc3c2[nH]1
inactive
7. CC1COCCN1c1cc(C2(S(C)(=N)=O)CC2)nc(-c2ccnc3[nH]ccc23)n1 (stereo unspecified) + Cc1[nH]c2ccc(F)cc2c1-c1nc2c3cccnc3c3ncccc3c2[nH]1
inactive
8. O=C(NO)c1cnc(N2CCN(S(=O)(=O)c3ccc4ccccc4c3)CC2)nc1 + Cc1cnc(CNC(=O)c2c(=O)c3ccc(N4CCCN(C)CC4)nc3n3c2sc2ccccc23)cn1
inactive
9. C=CCn1c(=O)c2cnc(Nc3ccc(N4CCN(C)CC4)cc3)nc2n1-c1cccc(C(C)(C)O)n1 + Cc1cnc(CNC(=O)c2c(=O)c3ccc(N4CCCN(C)CC4)nc3n3c2sc2ccccc23)cn1
inactive
10. Nc1ccn(C2OC(CO)C(O)C2(F)F)c(=O)n1 (stereo unspecified) + Cc1[nH]c2ccc(F)cc2c1-c1nc2c3cccnc3c3ncccc3c2[nH]1
inactive
11. CC1COCCN1c1cc(C2(S(C)(=N)=O)CC2)nc(-c2ccnc3[nH]ccc23)n1 (stereo unspecified) + CN(C)c1ccc(Nc2c3ccc(NC(=O)CCN4CCCC4)cc3nc3cc(NC(=O)CCN4CCCC4)ccc23)cc1
inactive
